The reported measurements were obtained from the nanobody polyreactivity screen of Harvey et al. (2022).

- Measurement protocol: yeast display, Sf9 membrane polyspecificity reagent, FACS + sequencing; frameworks hold sequencing errors
Measurement name: polyreactivity (PSR sort gate)

Recorded results for 5 sequences are shown here.
Residue codes	Result
QVQLVESGGGLVQAGGSLRLSCAASGSTFVRYVMGWYRQAPGKERELVAAIRYRGGSTYYADSVKGRFTISRDNAKNTVYLQMNSLKPEDTAVYYCATDWRRYTKQYGYWGQGTQVSVSS	high polyreactivity
QVQLVESGGGLVQAGGSLRLSCAASGRIFSYAMGWYRQAPGKERELVAAITRRGSTYYADSVKGRFTISRDNAKNTVYLQMKSLKPEDTAVYYCAADIYYSRTFYPMGYWGQGTQVTVSS	high polyreactivity
QVQLVESGGGLVQAGGSLRLSCAASGIIFVKYARGWSRQAPGKERELVAAITSGGSTYYADSVKGRFTISRDNAKNTVYLQTNSLKPEDTAVYYCNARRNQYLAQYDYWGQGTQVTVSS	high polyreactivity
QVQLVESGGGLVQAGGSLRLSCAASGTTFPLYAMGWYRQAPGKERELVAAITSVGSTYYADSVKGRFTISRDNAKNTVYLQMNSLKPEDTAVYDCAAANYTYASRWYDYWGQGTQVTVSS	low polyreactivity
QVQLVESGGGLVQAGGSLRLSCAASGFTFTLNAMGWYRQAPGKASEFVAAISTGGSTYYADSVKGRFTISRHNAKNTVYLQMNSRKPEDTAVYYCAAYRYSYHGSYQETYYYWGQGTQVTVSS	high polyreactivity

--- query ---
For this sequence ( `QVQLVESGGGLVQAGGSLRLSCAASGRIFRGNVMGWYIQAPGKERELVATITSSARTYYADSVKGRFTISRDNAMITVYLQMNSLKPEDTAVYYCAAKTRWNFYYWGQGTQVSVSS` ), measured polyreactivity (PSR sort gate) is high polyreactivity

---

- Measurement protocol: yeast display, Sf9 membrane polyspecificity reagent, FACS + sequencing; frameworks hold sequencing errors
Measurement name: polyreactivity (PSR sort gate)

Residue codes	Result
QVQLVESGGGLVQAGGTLRLSCAASGSILQYNAMGWYRQATVKVSELVAAISRTGGSTYYADSVKGRFTISRDIAMNNLYLQMNSLKPEDTAVYYCNVYLGILYKYDYWGQGNQVTVSS	low polyreactivity
QVQLVESGGGLVQAGGSLRLSCAASGSILTYNAMGWYRQAPGKERELVAAITSSGNTNYADSVKGRFTISRDNAKNTVYLQMNSLKPEDTAVYYCARDLREWGQGTQVTVSS	low polyreactivity
QVQLVESGGGLVQAGGSLRLSCAASGRIFYKYVMGWYRQAPGNERELVATITSGGSTYYADSVKGRFTISRDNAKNTVYLQMNSLKPEDTAVYYCAARKYYSRAYDYWGQGTQVTVSS	high polyreactivity
QVQLVESGGGLVQAGGSLRLSCAASGLTFPLYAMGWYRQAPGKEREFVAAITVSGVSTSYADSEKGRFTISRDIAKITVYLQMNSLKPEDTAVYYCAADYYIWTYWDVYYWGQGTQVTVSS	high polyreactivity
QVQLVESGGGLVQAGGSLRLSCAASGSIFGWYVMGWYRQAPGKERELVAAISSVGSTYYADSVKGRFTISRDNAKNTVYLQMNSLKPEDTAVYYCAKLRYPYLFWDDSEYWGQCTQVTVSS	low polyreactivity
QVQLVESGGGIVQAGGSLRLSCAASGSIFPDNAMGWYRQAPGKERELVAAIDKGTGSTNYADSVKGRFTISRDNAKNTVYLQMNSLKPEDTAVYYDYWGQGTQVSVSS	low polyreactivity
QVQLVESGGRLVQAGGSLRLSCAASGIIFVSYMGWYIQAPGQERELVAAIRWSGGRTYYADSVKGRFTISRDNAKNTVYLQMTSLKPEDTAVYNCATAPYICAYSLPHHDSWGQGTQVTVSS	high polyreactivity
QVQLVESGGGLVQAGGSLRLSCAASGRIFGLYAMGWYRQAPGKARELVAAISTRGGSTRYADSVKGRFTISRDTAKNTVYLQMNSLKPEDTAVYYCAKQPKPPPVTGYDYWGQGTQVTVSS	high polyreactivity

For this sequence ( `QVQLVESGGGLVQAGGSLRLSCAASGSILAANAMGWYRQAPGKERELVAAIDWTGGDTYYADSVKGRFTISRDNAKNTVYLQMNSLKPEDTAVYYCAAEFVWPSIAYDVEYDYWGQGTQVTVSS` ), measured polyreactivity (PSR sort gate) is low polyreactivity

For this sequence ( `QVQLVESGGGLVQAGGSLRLSCAASGSTFGYYGMGWYRQAPGKERELLAAISTGGRTNYADSVKGRFTISRDNAKNTVYLQMNSLKPEDTAVYYCAADFLSPAYRPSWYRFDYWGQGTQVTVSS` ), measured polyreactivity (PSR sort gate) is low polyreactivity

For this sequence ( `QVQLVESGGGLVQAGGSLRLSCAASGSTFYRYAMGWYRQAPGKERELVAAISSSGGSTYYADSVKGRFTISRDNAKNTVYLQMNSLKPEDTAVYYCNADVHSQYDYWGQGTQVTVSS` ), measured polyreactivity (PSR sort gate) is low polyreactivity

---

- Measurement protocol: yeast display, Sf9 membrane polyspecificity reagent, FACS + sequencing; frameworks hold sequencing errors
Measurement name: polyreactivity (PSR sort gate)

Residue codes	polyreactivity (PSR sort gate)
QVQLVESGGGLVQAGGSLRLSCAASGSIFYVYAMGWYRQAPGKERELVAAISRRGARTYYADSVKGRFTISRDTAKYPVYLQMNSLQPEDTAVYYCNADQYSTVGYSAEYEYWGHGTQVTVSS	low polyreactivity
QVQLVESGGCLVQAGGSLRFSCAASGLTFGRNAMGWYRQAPGTERELVAAISRSGGRTSYADSVKGRFTMSRDNAKNTVYLQMNSLKPEETAVYYCAARSDVYTHDYWGQGTQVTVSS	high polyreactivity
QVQRVDSGGGLVQAGGSLRLSCAASGRILRDYDRGWYRQAPGKDRELVAAINWSDGSTYYADSVKGRFTISRDNAKNTVYLQMNSLKPEDTAVYYCAASRWRPLERGTTWLHDYWGQGTQVTVSS	low polyreactivity
QVQLVESGGGLVQAGGSLRLTCAASGSTFTGYAMGWSIQAPGKERELVAGITGSGGSTYYADSVKGRFTISRDNAKNTVYLQMNSLKPEDTAVYYCNAVHWGGTYWGLDYWGQGTQVTVSS	low polyreactivity

For this sequence ( `QVQLVESGGGLVQSGGSLRLSCAASGRIFRFYTMGWYRQAPGKERELVAAITQRGGRTYYADSVKGRFTISRDNAKNTVYLQMNSLKPEDTAVYYCAATTTVAEYDYWGQGTQVTVSS` ), measured polyreactivity (PSR sort gate) is high polyreactivity

---

- Measurement protocol: yeast display, Sf9 membrane polyspecificity reagent, FACS + sequencing; frameworks hold sequencing errors
Measurement name: polyreactivity (PSR sort gate)

Recorded results for 6 sequences are shown here.
Residue codes	polyreactivity (PSR sort gate)
QVQLEESGGGLVQAGGRLRLSCAASGRTITRNAMGWYRQAPGKERELVAAISSRGGSTSYADSVKGRFTISRDNAKNTFYLQMNSLKPEDTAVYYCNKKTAASDYDYWGQGTQVTVSS	high polyreactivity
QDQLVESGGGLVQAGGSLRLSSAASGSTFDSNAMAWYRQAPGKERELVAAISSSGGRTSYADSVKGRFTISRDNAKNTVYLQMNSLKPEDTAVYYCADRFKSVDYVQYYYWGQGTQVTVSS	low polyreactivity
QVQLVESGGGLVQAGGSLRLSCAASGNIFSYNAMGWYRQAPGKERELVAGISTAGTTSYADSVKGRFTISRDNAKNTVYLQLNSLKPEDTAVYYCAKRRYYWTNLHYFLGYDYWGQGTQVTVSS	low polyreactivity
QVQLVESGGGLVQAGGSLRLSCAASGFIFASNAMGWYRQAPGKERELVAAINSSGGSTYYADSVKGRFTISRDNAKNTVYLQMNSLKPEDTAVYYCAADVIGDLRWYRDEYWGHGTQVTVSS	low polyreactivity
QGQLVESAGGLGQAGGSLRLSCAASGRTLGRYVMGWYRQGPGQVRELVAAISARTGSTYYADSVKGRFTISRDNAKNTVYLQMNSLKPEDTAVYYCATKFSSYDTRVSYDYWGQGTQVTVSS	low polyreactivity
QVQLVESGGGLVQAGGSLRLSCAASGSTFYRYPMGWYRQAPGKEREFVAAISGSGGSTRYADSVKGRFTISRDNAKKTVYLQMNSLKPEDTAVYYCAARSRYGYITFDYWGQGTQVTVSS	high polyreactivity

For this sequence ( `QVQLVESGGGLVQAGGSLRLSCDASGRIFYANAIGWYRQAPGKEREFVAAITRSGGSTYYADSVKGRFTISRDNAKNTVYLQMNSLKPEETAVYYCAAQGGDVYGWRYYYWGQGTQVTVSS` ), measured polyreactivity (PSR sort gate) is low polyreactivity

For this sequence ( `QVQLVESGGGLVQAGGSLRLSCAASGFTFYAYAMGWYGQAPGKERELVAAITGRGGSTYYADSVKGRFTISRDNAKNTVYLQMNSLKPEDTAVYYCNKVKKSDKFNNFSNDYWGQGTQVTVSS` ), measured polyreactivity (PSR sort gate) is high polyreactivity

For this sequence ( `QVQLVESGGGLVQAGGSLRLSCAASGFIFPGYAMGWYRQAPGKERELVAAISVSGGSTFYADSVKGRFTISRDNAKYTVYLQMNSLKPEDTAVYYCNARGYTWSYPLGIRVRYDYWGQGTQVTVSS` ), measured polyreactivity (PSR sort gate) is high polyreactivity

For this sequence ( `QVQIVESGGGLVQAGGSLRLICAASGSIFFYYAMGWYRQAPGKEWELVAAITFTGGSTYYADSVKGSFTISRDNAKNTVYLQMTSLKPEDTAVYYCAADWYYGFEYEYRGQGTQVTVSS` ), measured polyreactivity (PSR sort gate) is high polyreactivity

For this sequence ( `QVQLVESGVGLVQAGGTLRLSCAASGITFLQYAMGWYRQAPGKERELVAGITRSGGAGTYYADSVKGRFTISRDNAKNTVYLQMNSLKPEDTAVYYCAAETDTPSLYQDMYYWGQGTQVTVSS` ), measured polyreactivity (PSR sort gate) is high polyreactivity
